- Tested on: MDA-MB-231 breast
- method-notes: NCI-60 one-dose screen, 48 h (100 = growth as untreated, 0 = no growth, -100 = all killed)
- condition: 10 µM unless noted
About 83,000 compounds went through this panel and 20% of them were active in at least one assay; those are over-represented in the sample as a whole.
measurement-label: growth (%)
Reply numerically in %, unit not repeated.

Fill in growth for O=c1c2ccccc2nc(-c2ccccc2Cl)n1-c1nnc(C(F)(F)F)s1 tested with MDA-MB-231 breast.
52.3

GET growth where system = MDA-MB-231 breast and item = C/C=C(/C)C(=O)O[C@H]1CC[C@@]2(C)[C@@H]3CC[C@H]4[C@]5(O)C[C@H](O)[C@@]6(O)[C@@H](CN7C[C@@H](C)CC[C@H]7[C@@]6(C)O)[C@]5(O)C[C@@]42O[C@@]13O
130

Supply growth measured with MDA-MB-231 breast for COc1ccc2c(c1)c(-c1nc(-c3c[nH]c4ncccc34)cs1)cn2CCCCN1CCOCC1 .
23.4

Return reported growth for target or system MDA-MB-231 breast, item CC12CCC3C4CCC(=O)C=C4CCC3C1CC1CC(=O)OC12 (stereo not given) .
97.6

Specify growth for COc1ccn(C)c(=O)c1C#N , system MDA-MB-231 breast.
90.7

---

- Test system: TK-10 renal
- method-notes: NCI-60 one-dose screen, 48 h
- condition: 10 µM unless noted
About 83,000 compounds went through this panel and 20% of them were active in at least one assay; those are over-represented in the sample as a whole. Activity calls are given as the source filed them. Rule for the calls: active = growth percent below 10; inactive = the rest.
Respond only with the outcome that fits, drawn from true = active, false = inactive

Hi team, can someone confirm the assay call for O=[N+]([O-])c1ccc2scc3c4ccccc4nc-3c2c1 ?
true

What call does the record list for ClC1OC(Cl)(Cl)C(Cl)(Cl)OC1(Cl)Cl (stereo unspecified) ?
false

Could you kindly confirm the outcome this assay logged for O=C(Cc1ccccc1)c1ccccc1 ?
false

Write down the call the test reported for this molecule. Item: CC[C@H](C)[C@H]1O[C@]2(C=C[C@@H]1C)C[C@@H]1C[C@@H](C/C=C(\C)[C@@H](O[C@H]3C[C@H](OC)[C@@H](O[C@H]4C[C@H](OC)[C@@H](NC)[C@H](C)O4)[C@H](C)O3)[C@@H](C)/C=C/C=C3\CO[C@@H]4[C@H](O)C(C)=C[C@@H](C(=O)O1)[C@]34O)O2
true

Test call, this molecule: C#Cc1cccc(Nc2nc(Cl)nc3cc(NC(=O)CF)ccc23)c1
false

Per the records of this test, what outcome belongs to C/C=C(/C)C(=O)O[C@H]1CC[C@@]2(C)[C@@H]3CC[C@H]4[C@]5(O)C[C@H](O)[C@@]6(O)[C@@H](CN7C[C@@H](C)CC[C@H]7[C@@]6(C)O)[C@]5(O)C[C@@]42O[C@@]13O ?
false

Could you please tell me the result logged for O=S(=O)(F)c1cccc(Cl)c1C[P+](c1ccccc1)(c1ccccc1)c1ccccc1 in this assay?
false

Could you check what this test reported for C/C(=C\c1ccn(-c2ccc(N)cc2F)n1)[C@@H]1C[C@@H]2O[C@]2(C)CCC[C@H](C)[C@H](O)[C@@H](C)C(=O)C(C)(C)[C@@H](O)CC(=O)O1 ?
false

Per the records of this test, what outcome belongs to CC[PH+](CC)CC.O=COC1OC([S-])C(OC=O)C(OC=O)C1OC=O.[Au+] (stereo unspecified) ?
true

What is the recorded call for this molecule in the test? CCC1(CCSC#N)C(=O)NC(=O)NC1=O
false

In this assay, the call recorded for O=P(O)(Nc1ccccc1)Nc1ccccc1 was what?
false

How was N#CC(NC(=O)CCl)=C(Cl)Cl classified in this test?
true

Could you please tell me the result logged for CCN1C(=O)CC(=O)N(CC)C1=S in this assay?
false

Short answer needed: outcome of this test for CC12CCC3C(CCC4CC(O)CCC43C)C1CCC2=O (stereo unspecified) ?
false

Tell me the recorded outcome of this test for CC(C)CCC1C(=O)NC(=O)NC1=O .
false

Check the results log: what was the call for O=C(O)CNCP(=O)(O)O ?
false

Fill in: this test's call for OCCNC1CCCCC1 is ___
false

Dear colleague, could you share the recorded outcome for COc1ccn(C)c(=O)c1C#N when you have a moment?
false

Recorded test call requested for CNC(=O)Oc1ccc(Cl)cc1SSc1cc(Cl)ccc1OC(=O)NC
false

Just curious, what result did C=CC[PH+](c1ccccc1)c1ccccc1.C=CC[PH+](c1ccccc1)c1ccccc1.[Pt+2].[S-]c1nc2ccccc2[nH]1.[S-]c1nc2ccccc2[nH]1 get here?
true

In this assay, the call recorded for [N-]=[N+]=CC(=O)CCC(=O)C=[N+]=[N-] was what?
false

---

- Tested on: SNB-19 CNS
- method-notes: NCI-60 one-dose screen, 48 h (100 = growth as untreated, 0 = no growth, -100 = all killed)
- condition: 10 µM unless noted
About 83,000 compounds went through this panel and 20% of them were active in at least one assay; those are over-represented in the sample as a whole. Activity calls are given as the source filed them. Rule for the calls: active = growth percent below 10; inactive = the rest.
measurement-label: growth

Query growth for C#COc1cccc(Nc2ncnc3cc(NC(=O)CF)ccc23)c1
33.7% [6.25 µM] (inactive)

Retrieve growth measured for O=C1CN2CCC1CC2 and print it.
104% (inactive)

Look up growth of CC(=O)C(N)Cc1ccccc1 (configuration not stated) and report it.
99.3% (inactive)

Give growth for Nc1ccc2c(c1)Cc1cc(N)ccc1-2
103% (inactive)

Specify reported growth for the molecule shown: CC[C@H](C)[C@H](NC(=O)[C@H]1CCCCN1C)C(=O)N(C)[C@H](C[C@@H](OC(C)=O)c1cccc(C(=O)N[C@@H](Cc2ccccc2)C[C@H](C)C(=O)OC)n1)C(C)C
33.1% (inactive)

Annotate the molecule C=CC[PH+](c1ccccc1)c1ccccc1.C=CC[PH+](c1ccccc1)c1ccccc1.[Pt+2].[S-]c1nc2ccccc2[nH]1.[S-]c1nc2ccccc2[nH]1 with its measured growth.
5.65% (active)

Recall and state the measured growth for O=C(CBr)OCCOC(=O)CBr .
104% (inactive)

Give a short answer stating reported growth for COc1cc2c(cc1OC)-c1c3c(cc4c1[C@@H](C2)N(C)CC4)OCO3 .
48.4% (inactive)

Respond only with growth recorded for C/C(=C\c1ccn(-c2ccc(N)cc2F)n1)[C@@H]1C[C@@H]2O[C@]2(C)CCC[C@H](C)[C@H](O)[C@@H](C)C(=O)C(C)(C)[C@@H](O)CC(=O)O1
26% (inactive)

Look up growth of Cc1ccc(S(=O)(=O)n2cc([C@@]3(O)C[C@H](CSC#N)OC3=O)c3ccccc32)cc1 and report it.
97.5% (inactive)

Quickly give me recorded growth for O=[N+]([O-])c1ccc(P(=O)(O)O)cc1
108% (inactive)

Supply measured growth of CC(C)COC(=O)Cc1ccccc1 in your reply.
109% (inactive)

Report measured growth; entry is CC/C(=C(\c1ccc(OCCN2CCOCC2)cc1)c1ccc(OC(=O)Cc2ccccc2)cc1)c1ccc(Cl)cc1
99.6% (inactive)

Specify reported growth for the molecule shown: Cc1cc(C(C)(C)C)ccc1O
111% (inactive)

Return reported growth. Input molecule: N#CC(C#N)=Cc1cccc(F)c1
100% (inactive)

Determine from records and report growth for Cc1ccc(N2CCN(CCC#N)CC2)cc1
87.9% (inactive)

Specify growth for CCOC(=O)c1ccccc1C(=O)OCC and stop.
105% (inactive)

Quickly give me recorded growth for CNC(=O)O/N=C(\SC)C(=O)N(C)C
106% (inactive)

Return growth (reported value) for this molecule: CC1(C)S[C@H]2CC[C@H]3OC(=O)[C@@H]1N23
101% (inactive)

Given C[N+]12CCC34C5=CC(=O)C(=O)C=C5[N+]5(C)C(=O)CC6OCC=C(C1)C(CC32)C6C45 (configuration not stated) , respond with its growth.
104% (inactive)

Tell me growth reported for CC1=C([Te]c2ccccc2)C(=O)c2ccccc2C1=O
2.43% (active)

Answer with reported growth of CN1[C@@H](CC(=O)c2ccccc2)CCC[C@H]1CC(=O)c1ccccc1
98.4% (inactive)

---

- Test system: SF-295 CNS
- method-notes: NCI-60 one-dose screen, 48 h
- condition: 10 µM unless noted
Compounds without any hit were thinned out: in the full panel of roughly 83,000, 20% have a hit. Calls of active or inactive are those of the source. How the source made its calls: active means growth percent below 10; inactive means the rest.
Lab note: assign the record to one of true for active, false for inactive

Please indicate how the test categorized CC[C@H](C)[C@H]1O[C@]2(C=C[C@@H]1C)C[C@@H]1C[C@@H](C/C=C(\C)[C@@H](O[C@H]3C[C@H](OC)[C@@H](O[C@H]4C[C@H](OC)[C@@H](NC)[C@H](C)O4)[C@H](C)O3)[C@@H](C)/C=C/C=C3\CO[C@@H]4[C@H](O)C(C)=C[C@@H](C(=O)O1)[C@]34O)O2 .
true

Entry O=C(CBr)OCCOC(=O)CBr : call = ?
false

# outcome recorded in this test, key = COc1cc(C=C2C(=O)NC(=O)NC2=O)ccc1O
false

Could you check what this test reported for CO[C@@H]([CH2][Hg][O]C(=O)c1ccccc1)[C@@H]([CH2][Hg][O]C(=O)c1ccccc1)OC ?
false

How was COC(=O)CCP(CCC(=O)OC)c1ccccc1 classified in this test?
false

Outcome? CC1(C)N=C(N)N=C(N)N1c1ccc(CCC(=O)Nc2ccc(S(=O)(=O)F)cc2)cc1
false

Each compound tested received a call. Report the one for CN1CCN(c2ccc(Cl)cc2)CC1 .
false

Recorded test call requested for CCCCn1c(=O)c(C(=O)NCc2ccccc2Cl)c(O)c2ccccc21
false

What is the recorded call for this compound in the test? Oc1ccccc1C=NCCN=Cc1ccccc1O
false

Cited source for all entries: PubChem BioAssay (NCI)
